# system name: PD-1 (Homo sapiens (Human)) (UniProt Q15116)
# Sequence (Q15116 21-288 limits assumed): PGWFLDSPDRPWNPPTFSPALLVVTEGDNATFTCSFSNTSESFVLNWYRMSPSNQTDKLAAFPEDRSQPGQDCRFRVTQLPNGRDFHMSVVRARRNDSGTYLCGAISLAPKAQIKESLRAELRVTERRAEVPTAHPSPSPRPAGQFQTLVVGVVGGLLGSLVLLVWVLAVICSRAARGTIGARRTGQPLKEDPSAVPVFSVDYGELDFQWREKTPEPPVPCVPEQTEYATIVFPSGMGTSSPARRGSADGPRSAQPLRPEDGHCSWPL
# assay notes: flow cytometry, Jurkat/PD-1 cells
The binders listed here are annotated with their MFI at 50 nM.
Please give only the number in your answer, with no unit.

Some binders with recorded MFI at 50 nM:
binder: variant PD-L2 IgV-Fc E59G, Q82R (Fc fusion, not shown: a dimerising Fc or GST; small tags and cut ends) LFTVTVPKELYIIEHGSNVTLECNFDTGSHVNLGAITASLQKVENDTSPHRERATLLEGQLPLGKASFHIPQVQVRDEGQYRCIIIYGVAWDYKYLTLK
observed measurement: 12700

binder: variant PD-L2 IgV-Fc I13V, H15Q, S39I, E44D, S67L (Fc fusion, not shown: a dimerising Fc or GST; small tags and cut ends) FTVTVPKELYIVEQGSNVTLECNFDTGSHVNLGAITAILQKVDNDTSPHRERATLLEEQLPLGKALFHIPQVQVRDEGQYQCIIIYGVAWDYKYLTLK
observed measurement: 63500

binder: variant PD-L2 IgV-Fc H15Q, T47A, Q82R (Fc fusion, not shown: a dimerising Fc or GST; small tags and cut ends) LFTVTVPKELYIIEQGSNVTLECNFDTGSHVNLGAITASLQKVENDASPHRERATLLEEQLPLGKASFHIPQVQVRDEGQYRCIIIYGVAWDYKYLTLK
observed measurement: 65200

Moving on to another binder below.
Report MFI at 50 nM for variant PD-L2 IgV-Fc N32D, S67L, V89D (Fc fusion, not shown: a dimerising Fc or GST; small tags and cut ends) LFTVTVPKELYIIEHGSNVTLECNFDTGSHVDLGAITASLQKVENDTSPHRERATLLEEQLPLGKALFHIPQVQVRDEGQYQCIIIYGDAWDYKYLTLK please.
31800

Source of measurements: patent US20200040059A1
